Assay: in vivo
Settings: female, Hartley, guinea pig, po, 60 mg/kg, Cmax (ng/ml)
observation type: Cmax (ng/mL)
I only need the number, in ng/mL, no unit after it.

Memo: Nc1ccn([C@@H]2CS[C@H](CO)O2)c(=O)n1 , reported Cmax: 4110

====

Assay: in vivo
Settings: male, Hartley, guinea pig, po, 60 mg/kg, Cmax (ng/ml)
observation type: Cmax (µg/mL)
Give the value, in units of µg/mL, as a plain number.

Lab note: Nc1ccn([C@@H]2CS[C@H](CO)O2)c(=O)n1 [Lamivudine] gave Cmax of 4.56

====

Experiment: in vivo
Details: both, Hartley, guinea pig, po, 60 mg/kg, time to reach peak plasma concentrations
observation type: Tmax

Form field Tmax, entry Nc1ccn([C@@H]2CS[C@H](CO)O2)c(=O)n1 [Lamivudine] : ≤ 1 h

====

Tested on: EBOV/Kik (Ebola virus Kikwit variant)
Format: cell-based
Conditions: read-out: IC50
observation type: IC50

Cc1cn([C@H]2C[C@H](N=[N+]=[N-])[C@@H](CO)O2)c(=O)[nH]c1=O :: > 320 µM

Noted for Nc1ccn([C@@H]2CS[C@H](CO)O2)c(=O)n1 : its IC50 reads > 320 µM

====

Assay: in vivo
Details: male, Hartley, guinea pig, po, 60 mg/kg, Tmax (hr)
observation type: Tmax (h)
The answer is to be given in h; state only the numeric part.

For record Nc1ccn([C@@H]2CS[C@H](CO)O2)c(=O)n1 the listed Tmax is 1

====

Assay: in vivo
Details: male, Hartley, guinea pig, po, 60 mg/kg, AUCinf (h·ng/ml)
observation type: AUC(0-inf) (ng·h/mL)
Please respond with the number in ng·h/mL and leave the unit unwritten.

Data point: Nc1ccn([C@@H]2CS[C@H](CO)O2)c(=O)n1 [Lamivudine] ; AUC(0-inf) = 16800

====

Test: in vivo
Conditions: male, Hartley, guinea pig, po, 60 mg/kg, AUClast (h·ng/ml)
observation type: AUC(0-t) (ng·h/mL)
Quick note: give the figure in ng·h/mL, leave out the unit.

In plain terms, Nc1ccn([C@@H]2CS[C@H](CO)O2)c(=O)n1 has a documented AUC(0-t) of 15500

====

Assay: in vivo
Details: female, Hartley, guinea pig, po, 60 mg/kg, AUClast (h·ng/ml)
observation type: AUC(0-t)

// field: AUC(0-t); key: Nc1ccn([C@@H]2CS[C@H](CO)O2)c(=O)n1 ; value = 14600 ng·h/mL

Entry source: paper PMC5130197
